Each record here notes measured activation (% of control).
- assayProtocol: STAT1 signaling activators, primary screen, cell-based, HTS, luciferase reporter (AID 932);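 note: raw ratio to IFN-gamma control signal so 100% means no change and 0% no light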
- assayContext: NIH 3T3 STAT1-luciferase reporter, IFN-gamma, luminescence; at 5.5 µM; active compounds read high; 100% = IFN-gamma alone, no compound
About 5,100 (2.5%) of roughly 200,000 compounds were called active. Only a selection was taken, and actives are over-represented in it overall.
# value in %; strip the unit string

                                   compound           quantitymeasured  result
0  CCN(/N=C/c1ccccc1)c1cc(=O)n(C)c(=O)[nH]1  activation (% of control)    98.7

Value of measured activation (% of control) for the entry `Cc1ccc(C)n1NC(=O)c1ccc([N+](=O)[O-])cc1` : 97.7

Value of measured activation (% of control) for the entry `Clc1ccc(-c2nnc(SCc3nc4ccccc4s3)o2)cc1` : 122

Value of measured activation (% of control) for the entry `CC(C)OC(=O)Cn1nc(C(F)(F)F)c2c1CCCC2` : 96.5

Value of measured activation (% of control) for the entry `Cc1ccccc1-c1nc(C#N)c(NCc2ccco2)o1` : 98.1

Value of measured activation (% of control) for the entry `c1csc(-c2nc(-c3ccncc3)no2)c1` : 130

Value of measured activation (% of control) for the entry `COCCCNC(=S)N(Cc1ccccc1)Cc1ccc(F)cc1` : 90

Value of measured activation (% of control) for the entry `O=C(OCC#CCSc1nnc(-c2ccncc2)o1)c1sc2ccccc2c1Cl` : 100

Value of measured activation (% of control) for the entry `Cc1ccc(C(=O)NNC(=O)c2cccs2)cc1` : 130

Value of measured activation (% of control) for the entry `Nc1ccc(C(=O)NCc2ccccc2)cc1` : 100

Value of measured activation (% of control) for the entry CCc1ccc(C2N3CC4([N+](=O)[O-])CN2CC([N+](=O)[O-])(C3)C4(C)C)cc1 (configuration not stated) : 90.6

Value of measured activation (% of control) for the entry CNC(=O)NC(=O)CSc1nnc(-c2ccc(F)cc2)n1CC1CCCO1 (configuration not stated) : 103

====

- assayProtocol: STAT1 signaling activators, primary screen, cell-based, HTS, luciferase reporter (AID 932);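 note: raw ratio to IFN-gamma control signal so 100% means no change and 0% no light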
- assayContext: NIH 3T3 STAT1-luciferase reporter, IFN-gamma, luminescence; at 5.5 µM; active compounds read high; 100% = IFN-gamma alone, no compound
Hit rate of the full screen: of about 200,000 compounds, about 5,100 (2.5%) were called active. The entries come from a sample that favours actives as a whole.
Each record here notes measured activation (% of control).
# value in %; strip the unit string

Recorded activation (% of control), per entry:
>>> df
                          structurenotation           quantitymeasured  result
0   CC(=O)Nc1ccc(NC(=O)COc2ncnc3ccccc23)cc1  activation (% of control)    93.2
1   COc1ccc(-c2noc(-c3cccc(OC)c3OC)n2)cc1OC  activation (% of control)     144
2  CCN1CCC2(CC1)N=C(c1ccc(F)cc1)C(=S)N2C(=O)c1ccc(C)cc1  activation (% of control)     111
3  O=C(Nc1ccccc1)c1nnsc1S(=O)(=O)c1ccc(Cl)cc1  activation (% of control)      90
4  O=C(CSc1nnc(C2CC2)n1Cc1ccccc1)Nc1cccnc1Cl  activation (% of control)    96.9
5          O=C(NCc1cn2ccsc2n1)Nc1ccc(Cl)cc1  activation (% of control)     102

Please find the next compound below.
Value of measured activation (% of control) for the entry `COc1ccc(-c2csc(-c3cccs3)n2)cc1OC` : 182

These measurements were taken from PubChem BioAssay AID932.
